Assay: Pharmacokinetics: urinary excretion of parent compound and bioavailability from urine
Assay type: in vivo, rat
Conditions: rat, urine, iv, 114 mg/kg, i.v., single dose 114 mg/kg; read-out: Urinary excretion 0-24 h as parent compound
Endpoint label: dose excreted at 24 h (%)
Enter your answer as a number in %; do not include the unit.

## Input Give reported dose excreted at 24 h value for CCOP(=O)(OCC)C(Nc1ccccn1)P(=O)(OCC)OCC
## Output 14

* * *

Assay: Pharmacokinetics: urinary excretion of parent compound and bioavailability from urine
Format: in vivo, rat
Details: rat, po; p.o. vs i.v., 114 mg/kg, urine 0-24 h; read-out: Bioavailability F from urinary excretion
Endpoint label: bioavailability at 24 h (%)
Enter your answer as a number in %; do not include the unit.

## Input Fill in bioavailability at 24 h for record CCOP(=O)(OCC)C(Nc1ccccn1)P(=O)(OCC)OCC
## Output 58

* * *

Assay: Pharmacokinetics: serum AUC and bioavailability from serum concentration data
Format: in vivo
Conditions: rat, po, p.o. vs i.v., 114 mg/kg, read-out: Bioavailability F from serum concentration data (AUC)
Experimental: Pharmacokinetics of the compound [(2-pyridinylamino)methylidene]bisphosphonic acid tetraethylester was studied in rats. […] Bioavailability was determined from the total amount of compound excreted into urine during 24 hours or from the serum concentration data at different time points after oral administration and intravenous administration. The urine and serum samples were analyzed for the test compound I with high pressure liquid chromatographic methods. […]
Endpoint label: bioavailability
A bare number is not enough; add the unit after it.

## Input State, in one line, measured bioavailability of CCOP(=O)(OCC)C(Nc1ccccn1)P(=O)(OCC)OCC [I]
## Output 44%

* * *

Test: Pharmacokinetics: urinary excretion of parent compound and bioavailability from urine
Assay type: in vivo, rat
Conditions: rat, urine, po, 114 mg/kg, p.o., single dose 114 mg/kg; read-out: Urinary excretion 0-24 h as parent compound
Endpoint label: dose excreted at 24 h

## Input Specify reported dose excreted at 24 h for the molecule shown: CCOP(=O)(OCC)C(Nc1ccccn1)P(=O)(OCC)OCC [I]
## Output < 10%
